# Assayed target: μ opiate receptor (MOR) (Rattus norvegicus, UniProt P33535)
# Construct: from tissue; host or cells: striatal tissue (membrane preparation)
# Sequence (P33535 whole entry): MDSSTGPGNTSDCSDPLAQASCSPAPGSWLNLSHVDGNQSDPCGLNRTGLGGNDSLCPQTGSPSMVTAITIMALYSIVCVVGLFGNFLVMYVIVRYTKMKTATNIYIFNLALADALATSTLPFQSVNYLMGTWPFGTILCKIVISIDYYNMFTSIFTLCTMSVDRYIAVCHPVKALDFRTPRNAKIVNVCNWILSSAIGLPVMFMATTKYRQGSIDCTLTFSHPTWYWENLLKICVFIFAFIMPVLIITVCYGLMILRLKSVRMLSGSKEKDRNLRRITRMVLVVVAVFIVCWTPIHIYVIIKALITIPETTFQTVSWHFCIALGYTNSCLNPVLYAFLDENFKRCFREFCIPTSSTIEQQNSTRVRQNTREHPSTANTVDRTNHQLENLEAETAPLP
# Procedure text: MOR agonist activity, [35S]GTPγS binding assay using striatal membranes
# Format: biochemical
# Details: 1 μM compound, striatal membranes
// thresholds for [35S]GTPγS binding to Gαo, FLNA-binding compound as agonist 1 μM classes: low = under 200%, mid = from 200% up to 300%, high = 300% and over

1) OC(COc1ccc(Br)c(F)c1)CN1CCSCC1 (stereo not drawn)	low
2) CC1CCC(C(C)C)C(OCC(O)CN2CCN(CCCN3CCOCC3)CC2)C1 (stereo not drawn)	low
3) CC1CN(CC(O)COC2CCCCC2)CC(C)O1 (stereo not drawn)	mid
4) Cc1cccc(OCC(O)CN2CC(C)OC(C)C2)c1 (stereo not drawn)	mid
5) CC1CCC(C(C)C)C(OCC(O)CN2CCN(CCN3CCOCC3)CC2)C1 (stereo not drawn)	mid
6) CC1CN(CC(O)COc2cc(F)cc(F)c2)CC(C)O1 (stereo not drawn)	high
7) CC1CCC(C(C)C)C(OCC(O)CN2CCc3ccccc32)C1 (stereo not drawn)	mid
8) CC1CN(CC(O)COc2cccc(F)c2)CC(C)O1 (stereo not drawn)	high
